# SYSTEM_TESTED: OGA (Homo sapiens)
# Construct: HEK293 cells inducible for P301L mutant human Tau (isoform 2N4R) were established at Janssen; endogenous in cells; host or cells: HEK293 cells inducible for P301L mutant human Tau (2N4R)
# EXPERIMENT_DESCRIPTION: OGA cellular assay: immunocytochemical detection of O-GlcNAcylated proteins in HEK293 cells inducible for P301L mutant human Tau
# Type: cell-based
# PROTOCOL_CONDITIONS: HEK293 cells inducible for P301L mutant human Tau, 6 hours incubation
# Excerpt: HEK293 cells inducible for P301L mutant human Tau (isoform 2N4R) were established at Janssen. Thiamet-G was used for both plate validation (high control) and as reference compound (reference EC50 assay validation). […] Inhibition of OGA will result in an increase of O-GlcNAcylated protein levels resulting in an increased signal in the experiment. […] ICC pictures are imaged with a Perkin Elmer Opera Phenix plate microscope and quantified with the provided software Perkin Elmer Harmony 4.1. […]
Cellular hOGA; pEC50 by entry:

- COMPOUND: "CC(=O)Nc1ncc(CN2CCCC(c3nc(C)cc4cc[nH]c34)C2)s1 (stereo not drawn)"
  Cellular hOGA; pEC50: 7.61
- COMPOUND: "CC(=O)Nc1ncc(CN2CCC[C@@H](c3cnc4ccn(C)c4c3)C2)s1 (single isomer, unassigned)"
  Cellular hOGA; pEC50: 7.87
- COMPOUND: "CC(=O)Nc1ncc(CN2CCC[C@H](c3cc4cc[nH]c4nc3C)C2)s1 (single isomer, unassigned)"
  Cellular hOGA; pEC50: 7.90
- COMPOUND: "CC(=O)Nc1ncc(CN2CCCC(c3cc(C)nc4ccn(C)c34)C2)s1 (stereo not drawn)"
  Cellular hOGA; pEC50: 7.18
- COMPOUND: "CC(=O)Nc1ncc(CN2CCC[C@H](c3cnc4cc[nH]c4c3)C2)s1 (single isomer, unassigned)"
  Cellular hOGA; pEC50: 7.72
- COMPOUND: "CC(=O)Nc1ncc(CN2CCCC(c3cc(C)nc4cc[nH]c34)C2)s1 (stereo not drawn)"
  Cellular hOGA; pEC50: 6.40
